Ref: paper PMC9352680

subject-of-test: T1, PUF4 RNA-binding domain (Saccharomyces cerevisiae, UniProt P25339 537-888)
T1 sequence: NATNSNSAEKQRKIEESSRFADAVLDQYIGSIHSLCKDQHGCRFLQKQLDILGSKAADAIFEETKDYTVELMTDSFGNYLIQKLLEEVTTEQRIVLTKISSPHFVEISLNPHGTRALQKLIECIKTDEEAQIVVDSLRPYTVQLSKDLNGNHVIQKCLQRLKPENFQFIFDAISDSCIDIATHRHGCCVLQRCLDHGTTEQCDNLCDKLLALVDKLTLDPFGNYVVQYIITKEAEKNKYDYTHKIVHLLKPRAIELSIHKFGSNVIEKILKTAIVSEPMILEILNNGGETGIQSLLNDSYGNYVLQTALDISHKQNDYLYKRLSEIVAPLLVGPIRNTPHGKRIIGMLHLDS
experiment: Mg; RNA-MaP; 20 mM Na-HEPES pH 7.4, 30 mM KOAc, 0.75 mM MgCl2, 0.1% Tween-20, 5% glycerol, 0.1 mg/mL BSA, 2 mM DTT; 25 C; 0.0125-409.6 nM protein
assay-setup: tags: N-His6-TEV cleaved; C-SNAP kept, Cy3B-labelled; label: tethered on chip by stalled RNA polymerase
pKd: −log10 of the molar value.
experimental-endpoint: pKd

INSERT INTO results (binder, reported_result) VALUES
  ('Ic_S4_P4E.1_K4.1_C4.1_H4.1_A4.1_[A6T]_[T7G]_F4.1_[T8C]_[A9C]_T4.1 (ssRNA) RNA: UUUGACAACUGAUCGUUCUUUCUUGUAUUGCCUUCUUUCUCGAUCAGUUGUCUUU', 6.27),
  ('Id_ii_S2_P3E.2_K3.1_C3.2_[T-1A]_H3.1_A3.1_F3.1_T3.2_[A10C] (ssRNA) RNA: UUUGAUUAAUAUGAUAUCGUUCUUUCUCAUGUAUAUAUCUUCUUUCUCGAUAUCAUAUUAAUCUUU', 8.63),
  ('UCUCUUCUUGUCCCUAUAUAUAUCUCUU (ssRNA) [Ie_S1_P3E.2_K3.1_C3.2_H3.1_[+3CCCT]_A3.1_F3.1_T3.2]', 6.34),
  ('Ic_S2_P4E.1_K4.1_C4.1_H4.1_A4.1_[T5C]_[A6C]_[T7G]_F4.1_[T8A]_[A9C]_T4.1 (ssRNA) RNA: UUUGAUUAAUAUGAUAUCGUUCUUUCUUGUACCGACUUCUUUCUCGAUAUCAUAUUAAUCUUU', 6.03),
  ('Id_ii_S2_P5E.3_K5.2_C5.2_[C-2T]_[T-1C]_H5.2_A5.1_F5.1_T5.2_[A12T] (ssRNA) RNA: UUUGAUUAAUAUGAUAUCGUUCUUUCUUCUAUAUUAUUAUUUUCUUUCUCGAUAUCAUAUUAAUCUUU', 7.10),
  ('UCUCUUUGUACCAAUUCUCUU (ssRNA) [Ic_S1_P4E.1_K4.1_C4.1_H4.1_A4.1_[T5C]_[A6C]_[T7A]_F4.1_[T8A]_[A9T]_T4.1]', 6.99),
  ('Ia_S4_P3E.1_K3.1_C3.1_H3.1_A3.1_F3.1_[A8C]_T3.1 (ssRNA) RNA: UUUGACAACUGAUCGUUCUUUCUUGUAUAUCUUCUUUCUCGAUCAGUUGUCUUU', 7.91),
  ('Ic_S4_P4E.1_K4.1_C4.1_H4.1_A4.1_[T5C]_[A6C]_F4.1_T4.1 (ssRNA) RNA: UUUGACAACUGAUCGUUCUUUCUUGUACCUUAUUCUUUCUCGAUCAGUUGUCUUU', 8.76),
  ('Ic_S4_P4E.1_K4.1_C4.1_H4.1_A4.1_[T5C]_[A6C]_[T7A]_F4.1_[T8C]_[A9T]_T4.1 (ssRNA) RNA: UUUGACAACUGAUCGUUCUUUCUUGUACCACUUUCUUUCUCGAUCAGUUGUCUUU', 7.33),
  ('UCUCUUUGUAGUCCUCUCUU (ssRNA) [Ic_S1_P3E.1_K3.1_C3.1_H3.1_A3.1_[T5G]_[A6T]_F3.1_[T7C]_[A8C]_T3.1]', 5.70),
  ('Id_ii_S2_P5E.3_K5.2_C5.2_[C-2T]_[T-1C]_H5.2_A5.1_F5.1_T5.2_[T11C]_[A12T] (ssRNA) RNA: UUUGAUUAAUAUGAUAUCGUUCUUUCUUCUAUAUUAUUACUUUCUUUCUCGAUAUCAUAUUAAUCUUU', 7.09),
  ('ACAAACGUACACUAUUAGCACAAAC (ssRNA) [Id_ii_S3_P4E.4_K4.3_C4.2_[C-2G]_H4.3_A4.1_F4.1_T4.2_[T11C]]', 7.15);
